# method-notes: total protein half-life in vivo (active degradation + dilution); higher = more stable protein
# study-conditions: E. coli NCM3722 delta-clpP delta-lon delta-hslV; growth: N-lim chemostat; doubling time 6 h
Entries and their measured total protein half-life in vivo follow.
Report the figure in h without appending any unit label.

# input Look up and report measured total protein half-life in vivo for this entry: "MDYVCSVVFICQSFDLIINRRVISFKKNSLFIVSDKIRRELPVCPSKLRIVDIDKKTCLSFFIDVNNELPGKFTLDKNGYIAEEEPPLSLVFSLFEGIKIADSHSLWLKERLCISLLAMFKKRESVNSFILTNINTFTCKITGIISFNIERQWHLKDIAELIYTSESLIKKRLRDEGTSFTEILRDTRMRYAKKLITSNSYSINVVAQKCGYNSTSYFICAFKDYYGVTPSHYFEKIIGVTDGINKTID"
# output 5.39

# input Find the measured total protein half-life in vivo of "MPLPDFRLIRLLPLAALVLTACSVTTPKGPGKSPDSPQWRQHQQDVRNLNQYQTRGAFAYISDQQKVYARFFWQQTGQDRYRLLLTNPLGSTELELNAQPGNVQLVDNKGQRYTADDAEEMIGKLTGMPIPLNSLRQWILGLPGDATDYKLDDQYRLSEITYSQNGKNWKVVYGGYDTKTQPAMPANMELTDGGQRIKLKMDNWIVK" and report it.
# output 5.8

# input Given the sequence MKRQKRDRLERAHQRGYQAGIAGRSKEMCPYQTLNQRSQWLGGWREAMADRVVMA [P0AFW2] , write its reported total protein half-life in vivo.
# output 0.535

# input Given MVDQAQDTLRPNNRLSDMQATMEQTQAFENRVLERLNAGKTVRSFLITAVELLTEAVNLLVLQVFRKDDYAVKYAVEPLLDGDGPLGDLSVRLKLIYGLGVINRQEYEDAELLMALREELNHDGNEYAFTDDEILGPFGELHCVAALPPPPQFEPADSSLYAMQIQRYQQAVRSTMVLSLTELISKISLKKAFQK [P0AF10] , respond with its total protein half-life in vivo.
# output 4.34

====

# method-notes: total protein half-life in vivo (active degradation + dilution); higher = more stable protein
# study-conditions: wild type E. coli NCM3722; growth: C-lim chemostat; doubling time 12 h
value-type: total protein half-life in vivo (h)
# number only, unit h dropped from output

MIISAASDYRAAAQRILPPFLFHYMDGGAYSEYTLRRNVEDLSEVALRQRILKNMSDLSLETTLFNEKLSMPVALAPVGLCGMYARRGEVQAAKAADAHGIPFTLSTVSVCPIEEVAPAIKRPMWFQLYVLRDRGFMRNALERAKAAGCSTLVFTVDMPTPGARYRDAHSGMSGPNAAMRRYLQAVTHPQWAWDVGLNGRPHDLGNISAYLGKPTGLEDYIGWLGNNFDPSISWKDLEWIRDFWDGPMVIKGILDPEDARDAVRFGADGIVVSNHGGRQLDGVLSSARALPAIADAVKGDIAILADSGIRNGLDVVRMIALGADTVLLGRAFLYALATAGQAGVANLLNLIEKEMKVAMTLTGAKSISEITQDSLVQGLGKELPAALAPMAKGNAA
5.29

# input Please report total protein half-life in vivo for the following sequence: "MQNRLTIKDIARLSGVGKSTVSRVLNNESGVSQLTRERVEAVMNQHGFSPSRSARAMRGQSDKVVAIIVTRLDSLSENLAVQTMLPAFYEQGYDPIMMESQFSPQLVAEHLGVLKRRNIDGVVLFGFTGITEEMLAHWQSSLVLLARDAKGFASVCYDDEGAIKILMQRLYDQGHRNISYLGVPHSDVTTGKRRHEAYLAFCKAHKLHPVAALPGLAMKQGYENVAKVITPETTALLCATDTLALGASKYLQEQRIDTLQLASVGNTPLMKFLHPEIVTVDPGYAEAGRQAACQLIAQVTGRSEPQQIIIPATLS"
# output 12.4
